# experimental.system: T1, His6-tagged Bcl-XL (residues 1-208, N52D, N66D) (human), Q07817
# T1 chain: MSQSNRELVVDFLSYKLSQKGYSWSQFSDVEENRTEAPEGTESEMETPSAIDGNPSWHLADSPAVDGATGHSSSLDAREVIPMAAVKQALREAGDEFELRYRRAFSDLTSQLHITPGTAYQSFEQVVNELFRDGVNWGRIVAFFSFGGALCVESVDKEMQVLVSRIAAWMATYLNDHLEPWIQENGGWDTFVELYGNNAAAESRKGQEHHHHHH
# procedure.summary: ITC (Table 4; quantity and unit in Table 1)
Provide the reported Kd of each item.
Hi! Could you send only the number? It should be in µM, unit omitted.

Task: Record request: Kd value, item GSGTMENLSRRLAVTGDLFDIMSGQT (modifications not checked) [Beclin 1 BH3D-derived peptide K117A]
Output: 18.9

Task: What would you report for GSGTMENLSRRLKVTGDLADIMSGQT (modifications not checked) [Beclin 1 BH3D-derived peptide F123A] ?
Output: 408

Task: What would you report for GSGTMENASRRLKVTGDLFDIMSGQT (modifications not checked) [Beclin 1 BH3D-derived peptide L112A] ?
Output: 110

Task: What would you report for GSGTMENLSRRLKVTGDLFDIMSGQT (modifications not checked) [Beclin 1 BH3D peptide, wild type] ?
Output: 1.9
